Where do these numbers come from? They come from patent US20250222116A1.

Listed here: items and their measured clearance.
assay: Pharmacokinetic test in mice; format: in vivo, ICR mice; details: male, ICR, mouse, iv, i.v. 2.5 mg/kg, plasma
Give the number; L/h/kg is assumed, so skip it.

[[record]]
compound = "CCc1cc2ncc(CN3CC=C(c4ccc(C(=O)Nc5cnn(C6CCN(c7ccc8c(c7)C(=O)N(C7CCC(=O)NC7=O)C8=O)CC6)c5)nc4)CC3)cc2[nH]c1=O (centres unmarked)"
experimental_readout = "clearance"
measured = 0.00581


Which clearance value is on record for CCc1cc2ncc(CN3CCN(c4ccc(C(=O)NC5CCN(c6ccc7c(c6)C(=O)N(C6CCC(=O)NC6=O)C7=O)CC5)nc4)CC3)cc2[nH]c1=O (centres unmarked) ? 0.121
